Tested on: Puccinia recondita f. sp. tritici
experiment_summary: Test B: wheat leaf rust, spray on wheat seedlings, disease control rating
Assay type: in vivo
measurement_context: Puccinia recondita, 192 h; Rate 10 ppm; 100 = 100% disease control, 0 = no disease control relative to the controls

{"compound": "COC(=O)NCc1cc(-c2cn(-c3c(F)cc(C)cc3F)nn2)ccc1C [Compound 119]", "system_under_test": "Puccinia recondita f. sp. tritici", "pest or weed control at 10 ppm": "100%"}
{"compound": "COC(=O)NCc1cc(-c2ccn(-c3c(F)cc(SC(C)(C)C)cc3F)n2)ccc1C [Compound 42]", "system_under_test": "Puccinia recondita f. sp. tritici", "pest or weed control at 10 ppm": "100%"}
{"compound": "COC(=O)NCc1cc(-c2ccn(-c3c(F)cc(O)cc3F)n2)ccc1C [Compound 10]", "system_under_test": "Puccinia recondita f. sp. tritici", "pest or weed control at 10 ppm": "0%"}
{"compound": "COC(=O)NCc1cc(-c2ccn(-c3c(Cl)cccc3Br)n2)ccc1C [Compound 60]", "system_under_test": "Puccinia recondita f. sp. tritici", "pest or weed control at 10 ppm": "68%"}
{"compound": "C#Cc1cc(F)c(-n2ccc(-c3ccc(C)c(CNC(=O)OC)c3)n2)c(F)c1 [Compound 53]", "system_under_test": "Puccinia recondita f. sp. tritici", "pest or weed control at 10 ppm": "100%"}

---

Listing of entries alongside the reported melting point.

{"compound": "COC(=O)NCc1cc(-c2cn(-c3c(F)cc(Cl)cc3F)nn2)ccc1C [Compound 121]", "melting point": "159 to 163 °C"}
{"compound": "COC(=O)NCc1cc(-c2ccn(-c3c(F)cc(C(F)(F)F)cc3F)n2)ccc1C [Compound 64]", "melting point": "106 to 108 °C"}
{"compound": "COC(=O)NCc1cc(-c2cn(-c3c(F)cc(C)cc3F)nn2)ccc1C [Compound 119]", "melting point": "143 to 147 °C"}
{"compound": "COC(=O)NCc1cc(-c2cnn(-c3c(F)cc(C(F)(F)F)cc3F)n2)ccc1C [Compound 141]", "melting point": "138 to 142 °C"}
{"compound": "COC(=O)NCc1cc(-c2cnn(-c3c(F)cc(C)cc3F)n2)ccc1C [Compound 111]", "melting point": "117 to 121 °C"}
{"compound": "COC(=O)NCc1cc(-c2cn(-c3c(F)cc(I)cc3F)nn2)ccc1C [Compound 125]", "melting point": "166 to 170 °C"}
{"compound": "CCOc1cc(F)c(-n2ccc(-c3ccc(C)c(CNC(=O)OC)c3)n2)c(F)c1 [Compound 11]", "melting point": "118 to 119 °C"}
{"compound": "COC(=O)NCc1cc(-c2cn(-c3c(Br)cc(OC)cc3[N+](=O)[O-])nn2)ccc1C [Compound 129]", "melting point": "158 to 162 °C"}
{"compound": "COC(=O)NCc1cc(-c2cn(-c3c(Cl)cc(OC)cc3OC)nn2)ccc1C [Compound 120]", "melting point": "145 to 148 °C"}
{"compound": "COC(=O)NCc1cc(-c2cnn(-c3c(F)cc(C(C)C)cc3F)n2)ccc1C [Compound 108]", "melting point": "102 to 106 °C"}
{"compound": "COC(=O)NCc1cc(-c2cnn(-c3c(F)cc(C4CC4)cc3F)n2)ccc1C [Compound 113]", "melting point": "107 to 111 °C"}
{"compound": "COC(=O)NCc1cc(-c2cn(-c3c(C)cc(OC)cc3C)nn2)ccc1C [Compound 124]", "melting point": "110 to 114 °C"}
{"compound": "COC(=O)NCc1cc(-c2cc(C)n(-c3c(F)cccc3F)n2)ccc1C [Compound 100]", "melting point": "125 to 129 °C"}
{"compound": "COC(=O)NCc1cc(-c2cn(-c3c(Cl)cc(OC)cc3Cl)nn2)ccc1C [Compound 123]", "melting point": "148 to 152 °C"}
{"compound": "COC(=O)NCc1cc(-c2ncn(-c3c(F)cc(Br)cc3F)n2)ccc1C [Compound 104]", "melting point": "175 to 179 °C"}
{"compound": "COC(=O)NCc1cc(-c2cnn(-c3c(F)cc(I)cc3F)n2)ccc1C [Compound 116]", "melting point": "154 to 158 °C"}
{"compound": "COC(=O)NCc1cc(-c2ncn(-c3c(F)cc(C(F)(F)F)cc3F)n2)ccc1C [Compound 103]", "melting point": "168 to 172 °C"}
